Molecular target: T1, pm5 (Y15 and Y17 sulfated; Y16 not sulfated)
T1 construct: also called sulfated CCR8 N-terminal peptide pm5
T1 sequence (peptide, as listed by the source): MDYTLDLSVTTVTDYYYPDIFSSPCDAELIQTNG
Test: ELISA on coated peptide [cont.]
Experimental: The specific binding properties of antibodies were evaluated by ELISA with coated CCR8 related peptides (500 ng/ml) in carbonate/bicarbonate buffer. Different peptides were used as described in Table 1 (see Example 1). Each anti-CCR8 mAb was tested at 1 μg/mL then diluted at 1/10. […] Then the optical density (OD) was determined by using a multiplate reader (Tecan, Lyon, France) and correlated with mAb reactivity on the panel of coated peptides.
VALUE_TYPE: binding result

anti-CCR8 mAb 1-14 (antibody, V domains shown, Murine hybridoma mAb) VH: QVQLVETGGGLVRPGNSLKLSCVTSGFTFSNYRMHWLRQPPGKRLEWIAVIKVKSDNYGANYAESVKGRFTISRDDSKSSVYLQVNRLREEDTATYYCSSPTYPGSSGFAYWGQGTLVTVSA VL: DIQMTQTTSSLSASLGDRVTISCRASQDISNYLNWYQQKPDGTVKLLIYYTSRLHSGVPSRFSGSGSGTDYSLTISNLEQEDIATYFCQQGNKFPPTFGGGTKLEIN :: binds
anti-CCR8 mAb 1-11 (antibody, V domains shown, Murine hybridoma mAb) VH: QVQLQQPGAELVKPGASVKMSCKATGYTFTGYNMHWVKQTPGQGLEWIGAISPGKGDTSYNLKFKGKATLTTDKSSSTAYMQLSSLTSADSAVYYCARSGGTPFAYWGQGTLVTVSA VL: DVVMTQTPLSLPVSLGDQASISCRSSQSLVHSNGDTYLYWYLQKPGQSPKLLIYKVSNRFSGVPDRFSGSGSGTDFTLKINRVEAEDLGVYFCSQSTHVPYTFGGGTKLEIK :: binds

Ref: patent US20260132208A1
